Test system: MMACSF
EXPERIMENT_NOTES: apoptotic fraction of cells (caspase-3 NucView488 positive); higher = more apoptosis
STATED_CONDITIONS: 72 h; 0.316 µM
VALUE_TYPE: apoptotic fraction of cells

Recorded apoptotic fraction of cells (molecule `CCCS(=O)(=O)Nc1ccc(F)c(C(=O)c2c[nH]c3ncc(-c4ccc(Cl)cc4)cc23)c1F` ): 0.0493

Lab note: `CCCS(=O)(=O)Nc1ccc(F)c(C(=O)c2c[nH]c3ncc(Cl)cc23)c1F` gave apoptotic fraction of cells of 0.0549

// apoptotic fraction of cells value for `CN(C)CCOc1ccc(-c2nc(-c3ccncc3)c(-c3ccc4c(c3)CC/C4=N\O)[nH]2)cc1` : 0.0666

// recorded apoptotic fraction of cells for `Cc1ccc(NC(=O)c2cccc(C(C)(C)C#N)c2)cc1Nc1ccc2ncn(C)c(=O)c2c1` : 0.226

apoptotic fraction of cells recorded for this molecule, `Cn1cnc2c(F)c(Nc3ccc(Br)cc3Cl)c(C(=O)NOCCO)cc21` , is 0.193

====

Tested on: SKMEL28
EXPERIMENT_NOTES: relative viability (cell count relative to DMSO-treated control) (fraction of DMSO control); higher = more viable cells / less drug effect
STATED_CONDITIONS: 48 h; 0.00316 µM
VALUE_TYPE: relative viability
Form rule: numeric answer, no unit written next to it.

Consider CCCS(=O)(=O)Nc1ccc(F)c(C(=O)c2c[nH]c3ncc(-c4ccc(Cl)cc4)cc23)c1F [Vemurafenib] . Its measured relative viability is 0.828

So for Cc1ccc(NC(=O)c2cccc(C(C)(C)C#N)c2)cc1Nc1ccc2ncn(C)c(=O)c2c1 [AZ628] , the logged relative viability turned out to be 0.879

Memo: Cn1cnc2c(F)c(Nc3ccc(Br)cc3Cl)c(C(=O)NOCCO)cc21 [Selumetinib] , reported relative viability: 0.799

Please fill in: relative viability reported for CCCS(=O)(=O)Nc1ccc(F)c(C(=O)c2c[nH]c3ncc(Cl)cc23)c1F [PLX4720] = 0.824

Summary for this compound, `CN(C)CCOc1ccc(-c2nc(-c3ccncc3)c(-c3ccc4c(c3)CC/C4=N\O)[nH]2)cc1` : relative viability is 0.835

====

Test system: C32
EXPERIMENT_NOTES: apoptotic fraction of cells (caspase-3 NucView488 positive); higher = more apoptosis
STATED_CONDITIONS: 48 h; 0.01 µM
VALUE_TYPE: apoptotic fraction of cells
Output: the number by itself.

Form field apoptotic fraction of cells for item `Cn1cnc2c(F)c(Nc3ccc(Br)cc3Cl)c(C(=O)NOCCO)cc21` on C32: 0.0963

Entry `CCCS(=O)(=O)Nc1ccc(F)c(C(=O)c2c[nH]c3ncc(-c4ccc(Cl)cc4)cc23)c1F` under C32 had apoptotic fraction of cells of 0.173

The recorded apoptotic fraction of cells with C32 for `CN(C)CCOc1ccc(-c2nc(-c3ccncc3)c(-c3ccc4c(c3)CC/C4=N\O)[nH]2)cc1` was 0.121

Field apoptotic fraction of cells (C32), entry `Cc1ccc(NC(=O)c2cccc(C(C)(C)C#N)c2)cc1Nc1ccc2ncn(C)c(=O)c2c1` : 0.103

// apoptotic fraction of cells (C32) for `CCCS(=O)(=O)Nc1ccc(F)c(C(=O)c2c[nH]c3ncc(Cl)cc23)c1F` = 0.159

====

Test system: RVH421
EXPERIMENT_NOTES: relative viability (cell count relative to DMSO-treated control) (fraction of DMSO control); higher = more viable cells / less drug effect
STATED_CONDITIONS: 24 h; 0.316 µM
Could you please report measured relative viability for the items listed next?
// no unit string in output, number only

Recorded result, `CN(C)CCOc1ccc(-c2nc(-c3ccncc3)c(-c3ccc4c(c3)CC/C4=N\O)[nH]2)cc1` , relative viability: 1.01

Query Cn1cnc2c(F)c(Nc3ccc(Br)cc3Cl)c(C(=O)NOCCO)cc21 [Selumetinib] yields relative viability of 1.09

Noted for Cc1ccc(NC(=O)c2cccc(C(C)(C)C#N)c2)cc1Nc1ccc2ncn(C)c(=O)c2c1 [AZ628] : its relative viability reads 1.02

The recorded relative viability for CCCS(=O)(=O)Nc1ccc(F)c(C(=O)c2c[nH]c3ncc(Cl)cc23)c1F [PLX4720] is 1.05

Noted for CCCS(=O)(=O)Nc1ccc(F)c(C(=O)c2c[nH]c3ncc(-c4ccc(Cl)cc4)cc23)c1F [Vemurafenib] : its relative viability reads 1.07

====

System: K2
EXPERIMENT_NOTES: apoptotic fraction of cells (caspase-3 NucView488 positive); higher = more apoptosis
STATED_CONDITIONS: 24 h; 0.01 µM
VALUE_TYPE: apoptotic fraction of cells
Response field accepts a number only; no unit should be typed.

apoptotic fraction of cells reading for `Cc1ccc(NC(=O)c2cccc(C(C)(C)C#N)c2)cc1Nc1ccc2ncn(C)c(=O)c2c1` : 0.003

`CCCS(=O)(=O)Nc1ccc(F)c(C(=O)c2c[nH]c3ncc(-c4ccc(Cl)cc4)cc23)c1F` has a reported apoptotic fraction of cells of 0.00233

For reference, reported apoptotic fraction of cells for `Cn1cnc2c(F)c(Nc3ccc(Br)cc3Cl)c(C(=O)NOCCO)cc21` stands at 0.00321

// sample `CCCS(=O)(=O)Nc1ccc(F)c(C(=O)c2c[nH]c3ncc(Cl)cc23)c1F` , its apoptotic fraction of cells was 0.00388

Data point: `CN(C)CCOc1ccc(-c2nc(-c3ccncc3)c(-c3ccc4c(c3)CC/C4=N\O)[nH]2)cc1` ; apoptotic fraction of cells = 0.00244

====

System: WM1552C
EXPERIMENT_NOTES: apoptotic fraction of cells (caspase-3 NucView488 positive); higher = more apoptosis
STATED_CONDITIONS: 48 h; 0.01 µM
VALUE_TYPE: apoptotic fraction of cells

// returns apoptotic fraction of cells for Cn1cnc2c(F)c(Nc3ccc(Br)cc3Cl)c(C(=O)NOCCO)cc21 [Selumetinib] with WM1552C; value = 0.0655

Log: WM1552C, molecule `CN(C)CCOc1ccc(-c2nc(-c3ccncc3)c(-c3ccc4c(c3)CC/C4=N\O)[nH]2)cc1` , apoptotic fraction of cells = 0.0725

The reported WM1552C apoptotic fraction of cells of Cc1ccc(NC(=O)c2cccc(C(C)(C)C#N)c2)cc1Nc1ccc2ncn(C)c(=O)c2c1 [AZ628] is 0.0688

Response field apoptotic fraction of cells (WM1552C) for item CCCS(=O)(=O)Nc1ccc(F)c(C(=O)c2c[nH]c3ncc(-c4ccc(Cl)cc4)cc23)c1F [Vemurafenib] : 0.0701

apoptotic fraction of cells of CCCS(=O)(=O)Nc1ccc(F)c(C(=O)c2c[nH]c3ncc(Cl)cc23)c1F [PLX4720] , assay on WM1552C, is 0.0656

====

Test system: C32
EXPERIMENT_NOTES: apoptotic fraction of cells (caspase-3 NucView488 positive); higher = more apoptosis
STATED_CONDITIONS: 72 h; 0.0316 µM
VALUE_TYPE: apoptotic fraction of cells
I only need the number, thanks.

For this molecule ( CCCS(=O)(=O)Nc1ccc(F)c(C(=O)c2c[nH]c3ncc(Cl)cc23)c1F [PLX4720] ), measured apoptotic fraction of cells is 0.0684

Sure, the documented apoptotic fraction of cells for `CN(C)CCOc1ccc(-c2nc(-c3ccncc3)c(-c3ccc4c(c3)CC/C4=N\O)[nH]2)cc1` is 0.0299

The molecule listed as Cc1ccc(NC(=O)c2cccc(C(C)(C)C#N)c2)cc1Nc1ccc2ncn(C)c(=O)c2c1 [AZ628] has a reported apoptotic fraction of cells of 0.0379

# apoptotic fraction of cells (molecule: CCCS(=O)(=O)Nc1ccc(F)c(C(=O)c2c[nH]c3ncc(-c4ccc(Cl)cc4)cc23)c1F [Vemurafenib] ) is 0.0843

For record Cn1cnc2c(F)c(Nc3ccc(Br)cc3Cl)c(C(=O)NOCCO)cc21 [Selumetinib] the listed apoptotic fraction of cells is 0.0406

====

Tested on: MZ7MEL
EXPERIMENT_NOTES: relative viability (cell count relative to DMSO-treated control) (fraction of DMSO control); higher = more viable cells / less drug effect
STATED_CONDITIONS: 72 h; 1 µM
1 if relative viability is below 0.4. 0 if not; exact matches included in 0.

## Input Say whether its relative viability is strictly beneath 0.4. Entry: Cn1cnc2c(F)c(Nc3ccc(Br)cc3Cl)c(C(=O)NOCCO)cc21 [Selumetinib]
## Output 1

## Input Does Cc1ccc(NC(=O)c2cccc(C(C)(C)C#N)c2)cc1Nc1ccc2ncn(C)c(=O)c2c1 [AZ628] have relative viability strictly under 0.4?
## Output 1

## Input A record lists CCCS(=O)(=O)Nc1ccc(F)c(C(=O)c2c[nH]c3ncc(Cl)cc23)c1F [PLX4720] . Is its relative viability below 0.4?
## Output 1

## Input Is the reported relative viability for CCCS(=O)(=O)Nc1ccc(F)c(C(=O)c2c[nH]c3ncc(-c4ccc(Cl)cc4)cc23)c1F [Vemurafenib] strictly below 0.4?
## Output 1

## Input # check: relative viability < 0.4 for `CN(C)CCOc1ccc(-c2nc(-c3ccncc3)c(-c3ccc4c(c3)CC/C4=N\O)[nH]2)cc1`
## Output 0
